Measured Ratio IC50 of individual entries
- Organism: Homo sapiens
- METHOD: Selectivity index, ratio of IC50 for human CYP11B2 to IC50 for human CYP11B1
Output: the number by itself.

Some solved entries appear below for comparison.
{"columns": ["COMPOUND", "OBSERVED"],
 "data": [
  ["c1ccc(-c2cccc(Cn3cnc4ccccc43)c2)cc1", 6],
  ["c1ccc(-c2csc(Cn3ccnc3)c2)cc1", 15],
  ["CCOC(=O)c1cncn1[C@H](C)c1ccccc1 [ETOMIDATE]", 0.5]
]}

What value of measured Ratio IC50 is listed for "c1ccc(Cn2ccnc2)cc1" ?
3.4

What value of measured Ratio IC50 is listed for "c1ccc(Cn2cnc3ccccc32)cc1" ?
3.5

What value of measured Ratio IC50 is listed for "Cc1ccc(Cn2cnc3ccccc32)cc1" ?
1

What value of measured Ratio IC50 is listed for "c1ccc(-c2ccc(Cn3ccnc3)s2)cc1" ?
8.2
